Source of measurements: ChEMBL document CHEMBL2169795

pIC50 reference
Tested System: Histone deacetylase 2 (Homo sapiens, UniProt Q92769)
Sequence (Q92769 whole entry): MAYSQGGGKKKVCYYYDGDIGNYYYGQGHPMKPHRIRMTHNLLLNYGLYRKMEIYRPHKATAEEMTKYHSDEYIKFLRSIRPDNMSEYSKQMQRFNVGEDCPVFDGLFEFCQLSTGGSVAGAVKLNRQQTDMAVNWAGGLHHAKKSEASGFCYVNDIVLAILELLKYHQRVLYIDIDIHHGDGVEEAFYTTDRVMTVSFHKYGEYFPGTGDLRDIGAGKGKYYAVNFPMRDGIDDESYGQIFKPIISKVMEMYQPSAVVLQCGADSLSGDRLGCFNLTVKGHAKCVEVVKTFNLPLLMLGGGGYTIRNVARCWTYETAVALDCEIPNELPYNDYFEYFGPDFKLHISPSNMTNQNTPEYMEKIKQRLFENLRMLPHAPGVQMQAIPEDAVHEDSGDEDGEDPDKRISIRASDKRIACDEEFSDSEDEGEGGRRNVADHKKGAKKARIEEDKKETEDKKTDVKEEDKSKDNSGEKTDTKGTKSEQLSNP
Method Summary: Inhibition of human recombinant HDAC2 using Ac-Lys(Ac)-7-amino-4-methylcoumarin as substrate after 30 mins by trypsin-coupled fluorogenic assay
pIC50: −log10 of the molar value.
Endpoint: pIC50

INSERT INTO measurements (chemical_string, observed) VALUES
  ('CCC(=O)CCCCC[C@@H]1NC(=O)[C@H](C)N(C)C(=O)CCN(CC(C)C)C(=O)CN(CCc2c[nH]c3ccccc23)C1=O', 5.70),
  ('CCC(=O)CCCCC[C@@H]1NC(=O)[C@H](CCCNC(=N)N)NC(=O)CCN(CC=C(C)C)C(=O)CN(CCc2c[nH]c3ccccc23)C1=O', 5.92),
  ('CCC(=O)CCCCC[C@@H]1NC(=O)[C@H](CCCNC(=N)N)NC(=O)CCN(CC(C)C)C(=O)CN(CCc2c[nH]c3ccccc23)C1=O', 6.52),
  ('CCC(=O)CCCCC[C@@H]1NC(=O)[C@H](C)N(C)C(=O)C[C@H](CC(C)C)NC(=O)[C@H](Cc2c[nH]c3ccccc23)NC1=O', 7.15),
  ('CCC(=O)CCCCC[C@@H]1NC(=O)[C@H](CCCCNC(C)=O)NC(=O)CCN(CC(C)C)C(=O)CN(CCc2c[nH]c3ccccc23)C1=O', 6.43);
